What growth was measured for each of the following?
- Tested on: Klebsiella aerogenes DSM 30053
- test_method_notes: growth (OD595) fold change vs plate DMSO controls (fold change (ratio)); higher = more growth
- condition_parameters: incubation time: 27 h, anaerobic, 37 °C
Where a name gives a salt, the structure may show the parent alone.

Lab book: growth of C1CCC(C(CC2CCCCN2)C2CCCCC2)CC1 (centres undefined) [Perhexiline maleate] (20 µM) noted as 1

Memo: OCCN1CCN(CCCN2c3ccccc3Sc3ccc(Cl)cc32)CC1 [Perphenazine] (20 µM) , reported growth: 0.838

According to the records, this compound CC(=O)OCC(=O)[C@@]1(O)[C@H](C)C[C@H]2[C@@H]3CCC4=CC(=O)C=C[C@]4(C)[C@@]3(F)[C@@H](O)C[C@@]21C [Dexamethasone acetate] (20 µM) displays growth of 0.986

For this compound ( Cn1cc(C(=O)Nc2ccc(F)cc2-c2ccc(Cl)c(Cl)c2)c(C(F)F)n1 (20 µM) ), measured growth is 0.972

Reference source: the supplement of paper PMC12494721
